test: First-in-human clinical study: plasma and whole blood PK of INX-315 (oral QD, ASD tablet); assay type: in vivo; details: human, plasma, oral, 100 mg, plasma, 100 mg QD, Day 15 observed, mean of first two patients; read-out: Cmin^free

- SMILES_INPUT: "NS(=O)(=O)c1ccc(Nc2ncc3cc4n(c3n2)C2(CCCCC2)C(=O)NN4)cc1"
  concentration at 15 day (ng/mL): 9.2

* * *

experiment: First-in-human clinical study: plasma and whole blood PK of INX-315 (oral QD, ASD tablet); type: in vivo; settings: human, plasma, oral, 200 mg, plasma, 200 mg QD (n = 2); read-out: Total Area (AUC)
QUANTITY_KIND: AUC

- COMPOUND: "NS(=O)(=O)c1ccc(Nc2ncc3cc4n(c3n2)C2(CCCCC2)C(=O)NN4)cc1 [INX-315]"
  TEST_RESULT: "6260 ng·h/mL"
